# TESTED ON: a4b7 integrin interaction with MadCAM-1 (Homo sapiens, UniProt P13612+P26010)
# Construct: capture of a4b7 integrin expressing cells, RPMI8866; endogenous in cells
# Sequence (P13612 34-1032): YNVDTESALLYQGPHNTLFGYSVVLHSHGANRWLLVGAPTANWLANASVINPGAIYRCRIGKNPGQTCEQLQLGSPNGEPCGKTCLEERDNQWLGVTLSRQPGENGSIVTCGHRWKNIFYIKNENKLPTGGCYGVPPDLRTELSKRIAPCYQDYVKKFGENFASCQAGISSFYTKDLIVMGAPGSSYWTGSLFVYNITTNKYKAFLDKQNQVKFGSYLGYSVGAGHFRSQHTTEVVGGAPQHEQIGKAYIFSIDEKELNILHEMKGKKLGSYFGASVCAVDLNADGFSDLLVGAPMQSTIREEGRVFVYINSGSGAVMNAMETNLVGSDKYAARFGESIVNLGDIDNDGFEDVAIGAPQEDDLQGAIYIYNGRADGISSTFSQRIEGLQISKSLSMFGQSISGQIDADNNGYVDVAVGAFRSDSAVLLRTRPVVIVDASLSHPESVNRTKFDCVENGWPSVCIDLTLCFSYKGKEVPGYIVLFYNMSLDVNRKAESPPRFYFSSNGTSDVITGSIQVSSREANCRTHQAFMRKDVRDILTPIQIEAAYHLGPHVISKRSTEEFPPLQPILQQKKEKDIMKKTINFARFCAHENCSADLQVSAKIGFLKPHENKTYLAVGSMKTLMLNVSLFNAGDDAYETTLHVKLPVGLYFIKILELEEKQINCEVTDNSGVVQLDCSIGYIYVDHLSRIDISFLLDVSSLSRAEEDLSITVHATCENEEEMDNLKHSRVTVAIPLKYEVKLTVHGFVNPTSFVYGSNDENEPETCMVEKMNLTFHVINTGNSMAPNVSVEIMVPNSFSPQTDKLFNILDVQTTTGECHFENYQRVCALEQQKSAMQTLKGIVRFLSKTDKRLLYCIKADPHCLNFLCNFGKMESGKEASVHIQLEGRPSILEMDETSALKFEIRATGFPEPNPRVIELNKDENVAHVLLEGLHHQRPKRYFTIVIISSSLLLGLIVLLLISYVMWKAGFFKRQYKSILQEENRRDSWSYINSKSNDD
# Sequence (P26010 20-798): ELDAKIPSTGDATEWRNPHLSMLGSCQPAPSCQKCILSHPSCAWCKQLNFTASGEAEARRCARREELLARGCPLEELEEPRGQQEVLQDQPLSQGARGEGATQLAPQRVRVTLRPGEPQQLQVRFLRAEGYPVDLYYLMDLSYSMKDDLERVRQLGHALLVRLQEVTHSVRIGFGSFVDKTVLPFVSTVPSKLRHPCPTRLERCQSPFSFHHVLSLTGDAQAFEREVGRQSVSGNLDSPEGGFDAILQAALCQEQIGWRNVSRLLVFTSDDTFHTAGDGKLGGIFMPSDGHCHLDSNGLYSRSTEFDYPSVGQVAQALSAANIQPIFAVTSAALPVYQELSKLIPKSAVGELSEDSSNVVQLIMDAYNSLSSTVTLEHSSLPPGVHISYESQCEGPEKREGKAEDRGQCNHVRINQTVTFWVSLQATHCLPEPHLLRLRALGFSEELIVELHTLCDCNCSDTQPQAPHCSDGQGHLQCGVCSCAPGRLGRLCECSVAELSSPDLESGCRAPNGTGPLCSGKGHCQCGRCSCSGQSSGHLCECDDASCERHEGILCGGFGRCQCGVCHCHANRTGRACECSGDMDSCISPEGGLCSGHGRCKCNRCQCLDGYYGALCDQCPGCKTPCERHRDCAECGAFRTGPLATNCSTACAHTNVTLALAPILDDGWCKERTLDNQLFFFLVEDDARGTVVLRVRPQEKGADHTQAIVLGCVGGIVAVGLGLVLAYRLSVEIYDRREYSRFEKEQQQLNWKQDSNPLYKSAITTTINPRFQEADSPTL
# PROTOCOL DESCRIPTION: a4b7 Cell Capture Assay (RPMI8866 cells on MAdCAM-1 Fc coated plates)
# MEASUREMENT PARAMETERS: 50% human serum, 1 mM MgCl2, 1 hour incubation, CellTiter-Glo luminescence, read-out: a4B7 cell capture assay RMPI8866-MadCAM EC50
pEC50: −log10 of the molar value.
QUANTITY: pEC50

A = Cc1cc(C)c2c(c1)Oc1cccc(c1)[C@H](n1cc(CCN3CC(F)C3)c(C(F)(F)F)cc1=O)C(=O)N[C@@H](CC(=O)O)c1cc-2cc(C(F)(F)F)c1F (relative stereo) [Example 4]
B = Cc1cc2cc(c1F)[C@H](CC(=O)O)NC(=O)[C@@H](n1cc(CCN3CC(F)C3)c(C(F)(F)F)cc1=O)c1cccc(c1)Oc1cccc(C)c1-2 (relative stereo) [Example 1]
C = Cc1cccc2c1-c1ccc(F)c(c1)[C@H](CC(=O)O)NC(=O)[C@@H](n1cc(CCN3CC(F)C3)c(C(F)(F)F)cc1=O)c1cc(ccc1F)O2 [Example 32]
Query string: Rank the listed molecules, smallest pEC50 first and largest last. Put the labels in the requested order and list them out.
Result string: A, B, C
(A: 6.36, B: 7.23, C: 9.02)

* * *

# TESTED ON: a4b7 integrin interaction with MadCAM-1 (Homo sapiens, UniProt P13612+P26010)
# Construct: capture of a4b7 integrin expressing cells, RPMI8866; endogenous in cells
# Sequence (P13612 34-1032): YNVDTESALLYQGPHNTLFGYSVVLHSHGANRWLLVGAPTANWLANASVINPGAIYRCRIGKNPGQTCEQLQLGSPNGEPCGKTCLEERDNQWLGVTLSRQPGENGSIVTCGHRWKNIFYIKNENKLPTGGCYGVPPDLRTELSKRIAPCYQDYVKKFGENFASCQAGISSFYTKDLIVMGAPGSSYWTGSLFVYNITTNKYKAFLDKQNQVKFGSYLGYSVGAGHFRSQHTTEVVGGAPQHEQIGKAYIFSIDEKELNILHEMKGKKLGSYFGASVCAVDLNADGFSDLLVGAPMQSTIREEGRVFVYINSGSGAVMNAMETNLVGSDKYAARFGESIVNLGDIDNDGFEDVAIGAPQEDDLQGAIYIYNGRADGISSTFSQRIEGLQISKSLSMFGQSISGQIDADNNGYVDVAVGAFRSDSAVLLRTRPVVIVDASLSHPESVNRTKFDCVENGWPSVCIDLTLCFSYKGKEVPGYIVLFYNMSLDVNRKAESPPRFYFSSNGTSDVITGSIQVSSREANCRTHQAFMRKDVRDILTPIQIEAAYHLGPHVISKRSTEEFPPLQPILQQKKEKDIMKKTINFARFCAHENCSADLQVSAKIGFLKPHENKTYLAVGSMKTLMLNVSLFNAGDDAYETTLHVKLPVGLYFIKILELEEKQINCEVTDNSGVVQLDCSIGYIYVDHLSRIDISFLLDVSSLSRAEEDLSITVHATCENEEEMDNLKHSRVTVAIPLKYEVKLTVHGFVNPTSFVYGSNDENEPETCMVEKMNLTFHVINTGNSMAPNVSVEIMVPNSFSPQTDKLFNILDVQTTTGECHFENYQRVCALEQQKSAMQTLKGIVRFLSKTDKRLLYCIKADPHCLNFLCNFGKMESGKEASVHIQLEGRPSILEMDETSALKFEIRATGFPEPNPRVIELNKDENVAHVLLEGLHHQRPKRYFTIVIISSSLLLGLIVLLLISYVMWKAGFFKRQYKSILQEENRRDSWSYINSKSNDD
# Sequence (P26010 20-798): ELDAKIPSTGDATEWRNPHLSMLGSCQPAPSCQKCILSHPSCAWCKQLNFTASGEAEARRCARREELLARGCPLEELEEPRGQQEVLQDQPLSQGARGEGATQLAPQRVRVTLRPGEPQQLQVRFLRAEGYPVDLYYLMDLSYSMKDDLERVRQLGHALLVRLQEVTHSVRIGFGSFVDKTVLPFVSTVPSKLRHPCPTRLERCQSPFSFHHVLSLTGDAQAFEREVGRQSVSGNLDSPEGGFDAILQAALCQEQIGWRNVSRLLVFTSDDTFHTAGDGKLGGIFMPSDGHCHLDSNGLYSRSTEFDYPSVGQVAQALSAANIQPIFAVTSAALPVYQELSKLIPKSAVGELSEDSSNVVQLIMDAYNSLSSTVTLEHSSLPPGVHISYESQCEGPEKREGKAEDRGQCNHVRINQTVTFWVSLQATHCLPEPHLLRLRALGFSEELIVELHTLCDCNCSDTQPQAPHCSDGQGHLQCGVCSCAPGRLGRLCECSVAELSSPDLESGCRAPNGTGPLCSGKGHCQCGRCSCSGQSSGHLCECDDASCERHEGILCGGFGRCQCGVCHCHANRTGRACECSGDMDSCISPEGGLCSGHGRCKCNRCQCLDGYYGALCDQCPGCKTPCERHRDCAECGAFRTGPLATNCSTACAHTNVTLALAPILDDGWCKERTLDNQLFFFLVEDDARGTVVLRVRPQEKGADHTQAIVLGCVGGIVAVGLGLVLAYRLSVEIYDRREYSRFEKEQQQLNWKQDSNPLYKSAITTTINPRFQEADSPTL
# PROTOCOL DESCRIPTION: a4b7 Cell Capture Assay (RPMI8866 cells on MAdCAM-1 Fc coated plates)
# MEASUREMENT PARAMETERS: 50% human serum, 1 mM MgCl2, 1 hour incubation, CellTiter-Glo luminescence, read-out: a4B7 cell capture assay RMPI8866-MadCAM EC50
QUANTITY: EC50 (nM)

Solved entries (count: 5):
Cc1cc(C(F)(F)F)cc2c1-c1cc(c(F)c(C(F)(F)F)c1)[C@H](CC(=O)O)NC(=O)[C@@H](n1cc(CCN3CC(F)C3)c(C(F)(F)F)cc1=O)c1cccc(c1)O2 (relative stereo) | 330
Cc1cc2cc(c1F)[C@H](CC(=O)O)NC(=O)[C@@H](n1cc(CCN3CC(F)C3)c(C(F)(F)F)cc1=O)c1cc(ccc1F)Oc1cc(C(C)(C)O)cc(C)c1-2 (single isomer, unassigned) | 0.5
Cc1cc2cc(c1F)[C@H](CC(=O)O)NC(=O)[C@@H](n1cc(CCN(C)C)c(C(F)(F)F)cc1=O)c1cc(ccc1F)Oc1cccc(C)c1-2 (relative stereo) | 0.07
Cc1ccc2cc1[C@H](n1cc(CCN3CC(F)C3)c(C(F)(F)F)cc1=O)C(=O)N[C@@H](CC(=O)O)c1cc(cc(C)c1F)-c1c(C)cccc1OC2 (single isomer, unassigned) | 20
Cc1cc2cc(c1F)[C@H](CC(=O)O)NC(=O)[C@@H](n1ccc(C(F)(F)F)c(Cl)c1=O)c1cc(ccc1F)Oc1cccc(C)c1-2 (single isomer, unassigned) | 39

a = Cc1cc2cc(c1F)[C@H](CC(=O)O)NC(=O)[C@@H](n1cc(CCN3CC(F)C3)c(C(F)(F)F)cc1=O)c1cc(ccc1F)Oc1ccc(F)cc1-2 (single isomer, unassigned)
b = Cc1cccc2c1-c1cc(F)c(F)c(c1)[C@H](CC(=O)O)NC(=O)[C@@H](n1cc(CCN3CC(F)C3)c(C(F)(F)F)cc1=O)c1cc(ccc1F)O2 (relative stereo)
c = Cc1cc2cc(c1F)[C@H](CC(=O)O)NC(=O)[C@@H](n1cc(CCN3CC(F)C3)cc(C)c1=O)c1cc(ccc1F)Oc1cccc(C)c1-2 (single isomer, unassigned)
d = Cc1cc2cc(c1F)[C@H](CC(=O)O)NC(=O)[C@@H](n1cc(CCN3CC(F)C3)c(C(F)(F)F)cc1=O)c1cc(ccc1F)Oc1cccc(C(F)(F)F)c1-2 (relative stereo)
e = Cc1cc2cc(c1F)[C@H](CC(=O)O)NC(=O)[C@@H](n1cc(CCN3CC(F)C3)c(C(F)(F)F)cc1=O)c1cc(ccc1F)Oc1cc(N3C4CCC3COC4)cc(C)c1-2 (relative stereo)
Query string: Hey, quick one: sort these by EC50, low to high? Put the labels in the requested order and list them out.
Result string: c, e, b, d, a
